FITC Mean for assorted binders
study target: T1, IL-11 protein (UniProt P20809 22-199, limits assumed)
T1 construct: also called IL-11 antigen
T1 sequence (looked up): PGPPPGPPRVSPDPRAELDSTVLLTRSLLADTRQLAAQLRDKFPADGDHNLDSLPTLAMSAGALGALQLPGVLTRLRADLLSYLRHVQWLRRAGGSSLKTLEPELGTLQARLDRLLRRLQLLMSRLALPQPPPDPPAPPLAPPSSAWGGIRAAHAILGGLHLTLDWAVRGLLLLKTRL
method notes: flow competition: IL-11 + antibody on IL-11R cells; lower = more blocking; note: test concentration or dose not given here
Lab note: jot down the number only; don't add units.

Field: example entries. Status: answers known.
3-5B2-2G4 (antibody, human IgG1, kappa, V domains shown) VH: QIQLVQSGPELKKPGETVKISCKASGYTFTNYGMNWVKQAPGKGLKWMGWINTNTGEPTYAEEIKGRFAFSLETSASTAYLQINNLKNEDTATYFCSREGIYGMDSWGQGTSVTVSS VL: SIVMTQTPKFLLVSAGDRVTITCKASQSVSNDVVWYRQKPGQSPKLLIYYASNRYIGVPDRFTGSGYGTDFTFTISTVQAEDLAVYFCQQDYYSPWTFGGGTKLEIKR | 19800
3-15D5-3A6 (antibody, human IgG1, kappa, V domains shown) VH: QVTLKESGPGILQPSQTLSLTCSFSGFSLSSSGMSVGWIRQPSGKGLEWLAHIWWSDDKSYNPALKSRLTISKDTSNNQVFLKIASVVTADTATYYCAREGSLGYGLDYWGQGTTLTVSS VL: DVLMTQTPLSLPVSLGDQASISCRSSQSIVHTDGNTYLEWYLQKPGQSPKLLIYKVSNRFSGVPDRFSGSGSGTDFTLKISRVEAEDLGVYYCFQGSHVPWTFGGGTKLEIKR | 10900

Now for the binder whose FITC Mean we want.
Using the record for 3-2B5-3D2 (antibody, human IgG1, kappa, V domains shown) VH: QVQLKQSGPGLVLPSQSLSITCTVSGFSLTSYGVHWFRQSPGTGLEWLGVIWSGGITDYNATFIPRLSISKDNSKSQVFFKMNSLQADDTAIYYCARNFDGYYYSIDYWGQGTSVTVSS VL: DIQMTQTTSSLSASLGDRVTISCRASQDISNSLNWYQQKPDGTVKLLIYYTSRLHSGVPSRFTGSGSGTDYSLTISNLEQEDIATYFCQQGNTLPLTFGAGTKLELKR , report its FITC Mean. 15300
